# targetDesc: UniProt P20272
# runDescription: binding of the pyrazoline compounds to CB1-receptors (Pharmacological Methods, Part I)
# Set-up: IC50; species or system human or rat
# experimentalContext: radioligand [3H]-CP55940, read-out: IC50
Where a name gives a salt, the structure may show the parent alone.
property: IC50 (nM)
// return numeric value only (unit: nM, not printed)

# input compound: COc1ccc([C@H]2[C@@H](C)C(C(=O)NN3CC4CCCC4C3)=NN2c2ccc(Cl)cc2Cl)cc1.Cl (relative stereo) [Example 277, hydrochloride] ; wanted: its IC50
20

Next:
# input compound: C[C@@H]1C(C(=O)NN2CCCCC2)=NN(c2ccc(Cl)cc2Cl)[C@@H]1c1ccc(Cl)s1 (relative stereo) [Example 427, hydrochloride] ; wanted: its IC50
160

# input compound: CC1CCN(NC(=O)C2=NN(c3ccc(Cl)cc3Cl)[C@@H](c3ccc(Cl)cc3)[C@H]2C)CC1 (relative stereo) ; wanted: its IC50
77.3

Ref: patent US20070073056A1
